# credit: paper PMC5548886

ASSAY TEXT: Pharmacokinetics, unchanged RAF265 in plasma
Format: in vivo, human
STATED CONDITIONS: human, plasma, oral, 288 mg, First dose (PK run-in), DL 6, 288 mg; read-out: T1/2, Median (converted)
MEASURED ATTRIBUTE: half-life (days)
Numeric only. Scale: days

[Q] Specify half-life for Cn1c(Nc2ccc(C(F)(F)F)cc2)nc2cc(Oc3ccnc(-c4ncc(C(F)(F)F)[nH]4)c3)ccc21 [RAF265] and stop.
[A] 7.62

###

ASSAY TEXT: Pharmacokinetics, unchanged RAF265 in plasma
Type: in vivo, human
STATED CONDITIONS: human, plasma, oral, 24 mg, Cycle 1 Day 15, DL 5, MD 24 mg; read-out: Cmax, Mean (SD)
MEASURED ATTRIBUTE: Cmax (ng/mL)
Numeric only. Scale: ng/mL

[Q] Specify Cmax for Cn1c(Nc2ccc(C(F)(F)F)cc2)nc2cc(Oc3ccnc(-c4ncc(C(F)(F)F)[nH]4)c3)ccc21 and stop.
[A] 850

###

ASSAY TEXT: Pharmacokinetics, unchanged RAF265 in plasma
Assay type: in vivo, human
STATED CONDITIONS: human, plasma, oral, 3 mg, Cycle 1 Day 15, DL 2, MD 3 mg; read-out: Tmax, Median
MEASURED ATTRIBUTE: Tmax (h)
Numeric only. Scale: h

[Q] Specify Tmax for Cn1c(Nc2ccc(C(F)(F)F)cc2)nc2cc(Oc3ccnc(-c4ncc(C(F)(F)F)[nH]4)c3)ccc21 and stop.
[A] 3.07

###

ASSAY TEXT: Pharmacokinetics, unchanged RAF265 in plasma
Format: in vivo, human
STATED CONDITIONS: human, plasma, oral, 288 mg, First dose (PK run-in), DL 6, 288 mg; read-out: Cmax, Mean (SD)
MEASURED ATTRIBUTE: Cmax (ng/mL)
Numeric only. Scale: ng/mL

[Q] Specify Cmax for Cn1c(Nc2ccc(C(F)(F)F)cc2)nc2cc(Oc3ccnc(-c4ncc(C(F)(F)F)[nH]4)c3)ccc21 [RAF265] and stop.
[A] 2310

###

ASSAY TEXT: Pharmacokinetics, unchanged RAF265 in plasma
Type: in vivo, human
STATED CONDITIONS: human, plasma, oral, 12 mg, Cycle 1 Day 15, DL 4, MD 12 mg; read-out: Tmax, Median
MEASURED ATTRIBUTE: Tmax (h)
Numeric only. Scale: h

[Q] Specify Tmax for Cn1c(Nc2ccc(C(F)(F)F)cc2)nc2cc(Oc3ccnc(-c4ncc(C(F)(F)F)[nH]4)c3)ccc21 [RAF265] and stop.
[A] 5.13

###

ASSAY TEXT: Pharmacokinetics, unchanged RAF265 in plasma
Assay type: in vivo, human
STATED CONDITIONS: human, plasma, oral, 6 mg, Cycle 1 Day 15, DL 3, MD 6 mg; read-out: AUC(0-tlast), Mean (SD)
MEASURED ATTRIBUTE: AUC(0-t) (ng·h/mL)
Numeric only. Scale: ng·h/mL

[Q] Specify AUC(0-t) for Cn1c(Nc2ccc(C(F)(F)F)cc2)nc2cc(Oc3ccnc(-c4ncc(C(F)(F)F)[nH]4)c3)ccc21 and stop.
[A] 4150

###

ASSAY TEXT: Pharmacokinetics, unchanged RAF265 in plasma
Type: in vivo, human
STATED CONDITIONS: human, plasma, oral, 403 mg, First dose (PK run-in), DL 7, 403 mg; read-out: AUC(0-tlast), Mean (SD)
Description: PK parameters included the maximum observed concentration (C max), time to reach C max (T max), area under the curve from time 0 to last measurable concentration (AUClast), time point of the last measurable concentration (T last), and terminal half‐life of elimination phase (T 1/2). Cycle 1 Day 1 and day 15, reported PK parameters include C max, T max, AUClast and T last. […] The point estimate and associated 90% CI for the slope parameter were determined for safety considerations.
MEASURED ATTRIBUTE: AUC(0-t) (µg·h/mL)
Numeric only. Scale: µg·h/mL

[Q] Specify AUC(0-t) for Cn1c(Nc2ccc(C(F)(F)F)cc2)nc2cc(Oc3ccnc(-c4ncc(C(F)(F)F)[nH]4)c3)ccc21 and stop.
[A] 137

###

ASSAY TEXT: Pharmacokinetics, unchanged RAF265 in plasma
Format: in vivo, human
STATED CONDITIONS: human, plasma, oral, 29 mg, Cycle 1 Day 1, DL 3, LD 29 mg; read-out: Cmax, Mean (SD)
MEASURED ATTRIBUTE: Cmax (ng/mL)
Numeric only. Scale: ng/mL

[Q] Specify Cmax for Cn1c(Nc2ccc(C(F)(F)F)cc2)nc2cc(Oc3ccnc(-c4ncc(C(F)(F)F)[nH]4)c3)ccc21 and stop.
[A] 276

###

ASSAY TEXT: Pharmacokinetics, unchanged RAF265 in plasma
Assay type: in vivo, human
STATED CONDITIONS: human, plasma, oral, 20 mg, First dose (PK run-in), DL 2, 20 mg; read-out: Tmax, Median
MEASURED ATTRIBUTE: Tmax (h)
Numeric only. Scale: h

[Q] Specify Tmax for Cn1c(Nc2ccc(C(F)(F)F)cc2)nc2cc(Oc3ccnc(-c4ncc(C(F)(F)F)[nH]4)c3)ccc21 and stop.
[A] 2

###

ASSAY TEXT: Pharmacokinetics, unchanged RAF265 in plasma
Assay type: in vivo, human
STATED CONDITIONS: human, plasma, oral, 10 mg, First dose (PK run-in), DL 1, 10 mg; read-out: Tmax, Median
Experimental: PK parameters included the maximum observed concentration (C max), time to reach C max (T max), area under the curve from time 0 to last measurable concentration (AUClast), time point of the last measurable concentration (T last), and terminal half‐life of elimination phase (T 1/2). Cycle 1 Day 1 and day 15, reported PK parameters include C max, T max, AUClast and T last. […] The point estimate and associated 90% CI for the slope parameter were determined for safety considerations.
MEASURED ATTRIBUTE: Tmax
Kindly write the number and append the unit.

[Q] Specify Tmax for Cn1c(Nc2ccc(C(F)(F)F)cc2)nc2cc(Oc3ccnc(-c4ncc(C(F)(F)F)[nH]4)c3)ccc21 and stop.
[A] 3 h

###

ASSAY TEXT: Pharmacokinetics, unchanged RAF265 in plasma
Assay type: in vivo, human
STATED CONDITIONS: human, plasma, oral, 48 mg, Cycle 1 Day 15, DL 6, MD 48 mg; read-out: AUC(0-tlast), Mean (SD)
MEASURED ATTRIBUTE: AUC(0-t) (µg·h/mL)
Numeric only. Scale: µg·h/mL

[Q] Specify AUC(0-t) for Cn1c(Nc2ccc(C(F)(F)F)cc2)nc2cc(Oc3ccnc(-c4ncc(C(F)(F)F)[nH]4)c3)ccc21 and stop.
[A] 28.5

###

ASSAY TEXT: Pharmacokinetics, unchanged RAF265 in plasma
Assay type: in vivo, human
STATED CONDITIONS: human, plasma, oral, 115 mg, Cycle 1 Day 1, DL 5, LD 115 mg; read-out: Cmax, Mean (SD)
MEASURED ATTRIBUTE: Cmax (ng/mL)
Numeric only. Scale: ng/mL

[Q] Specify Cmax for Cn1c(Nc2ccc(C(F)(F)F)cc2)nc2cc(Oc3ccnc(-c4ncc(C(F)(F)F)[nH]4)c3)ccc21 and stop.
[A] 1070

###

ASSAY TEXT: Pharmacokinetics, unchanged RAF265 in plasma
Assay type: in vivo, human
STATED CONDITIONS: human, plasma, oral, 403 mg, First dose (PK run-in), DL 7, 403 mg; read-out: Tmax, Median
MEASURED ATTRIBUTE: Tmax (h)
Numeric only. Scale: h

[Q] Specify Tmax for Cn1c(Nc2ccc(C(F)(F)F)cc2)nc2cc(Oc3ccnc(-c4ncc(C(F)(F)F)[nH]4)c3)ccc21 [RAF265] and stop.
[A] 3

###

ASSAY TEXT: Pharmacokinetics, unchanged RAF265 in plasma
Assay type: in vivo, human
STATED CONDITIONS: human, plasma, oral, 58 mg, Cycle 1 Day 1, DL 4, LD 58 mg; read-out: Cmax, Mean (SD)
MEASURED ATTRIBUTE: Cmax (ng/mL)
Numeric only. Scale: ng/mL

[Q] Specify Cmax for Cn1c(Nc2ccc(C(F)(F)F)cc2)nc2cc(Oc3ccnc(-c4ncc(C(F)(F)F)[nH]4)c3)ccc21 and stop.
[A] 500

###

ASSAY TEXT: Pharmacokinetics, unchanged RAF265 in plasma
Assay type: in vivo, human
STATED CONDITIONS: human, plasma, oral, 20 mg, First dose (PK run-in), DL 2, 20 mg; read-out: T1/2, Median (converted)
MEASURED ATTRIBUTE: half-life (days)
Numeric only. Scale: days

[Q] Specify half-life for Cn1c(Nc2ccc(C(F)(F)F)cc2)nc2cc(Oc3ccnc(-c4ncc(C(F)(F)F)[nH]4)c3)ccc21 [RAF265] and stop.
[A] 8.71

###

ASSAY TEXT: Pharmacokinetics, unchanged RAF265 in plasma
Assay type: in vivo, human
STATED CONDITIONS: human, plasma, oral, 144 mg, First dose (PK run-in), DL 5, 144 mg; read-out: Tmax, Median
MEASURED ATTRIBUTE: Tmax (h)
Numeric only. Scale: h

[Q] Specify Tmax for Cn1c(Nc2ccc(C(F)(F)F)cc2)nc2cc(Oc3ccnc(-c4ncc(C(F)(F)F)[nH]4)c3)ccc21 and stop.
[A] 2.15
